Attribute: pEC50
Target: mouse RORγ (Mus musculus)
Construct: mouse RORγ, from Ile251 to Lys516; expressed in transfected cells; host or cells: CHO cells (Chinese hamster ovary), transient co-transfection with pG5-Luc
Sequence (P51450 251-516): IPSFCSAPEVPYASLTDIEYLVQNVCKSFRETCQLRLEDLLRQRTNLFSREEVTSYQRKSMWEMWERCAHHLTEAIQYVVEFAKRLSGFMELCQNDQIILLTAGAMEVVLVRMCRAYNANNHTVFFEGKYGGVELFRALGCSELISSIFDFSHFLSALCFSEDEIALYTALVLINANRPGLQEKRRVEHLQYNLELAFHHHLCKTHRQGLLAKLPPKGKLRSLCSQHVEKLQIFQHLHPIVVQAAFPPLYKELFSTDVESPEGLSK
Assay: In vitro assay of inhibitory effect against RORγ transcriptional activity (GAL4-mRORγ LBD luciferase reporter gene assay in CHO cells)
Format: cell-based
Details: GAL4-mRORγ LBD / pG5-Luc in CHO cells, 2 days incubation
The quantity pEC50 is defined as the negative base-10 logarithm of the molar concentration.

These recorded examples may help you get a feel for the data.
>  <compound>
CC(C)(C)CCc1ccc([C@@]2(C)NC(=O)N(CCCC(=O)O)C=C2C2CCOCC2)cc1Cl

>  <pEC50>
5.94

$$$$
>  <compound>
CC(C)Cc1ccc(C2(C)NC(=O)N(CCCC(=O)O)C=C2C(C)C)cc1 (racemic)

>  <pEC50>
6.21

$$$$
>  <compound>
CC(C)C1=CN(C(C)CCC(=O)O)C(=O)NC1(C)c1ccc(CCC(C)(C)C)c(Cl)c1 (centres unmarked)

>  <pEC50>
6.18

$$$$

GET /values?readout=pEC50&system=mouse RORγ (Mus musculus)&item= CC(C)C1=CN(CCC(=O)O)C(=O)N[C@@]1(C)c1ccc(C2CCCCC2)c(Cl)c1 7.31

Try the compound CC(C)CC1=CN(CCC(=O)O)C(=O)N[C@@]1(C)c1ccc(CCC(C)(C)C)c(Cl)c1 7.96

Same question, CC(C)C1=CN(CCC(C)(C)C(=O)O)C(=O)N[C@@]1(C)c1ccc(CCC(C)(C)C)c(Cl)c1 this time 7.59

Here is the next compound: CC(C)(C)CCc1ccc([C@]2(C)NC(=O)N(CCCC(=O)O)C=C2C2CC(F)(F)C2)cc1Cl 7.92

Next record, please: CC(C)(C)CCc1ccc([C@@]2(C)NC(=O)N(CCCC(=O)O)C=C2C2CC(F)(F)C2)cc1Cl 5.40

// provenance: patent US10196363B2
